Test system: 186277-243-T-J2-PDC complex spheroid viability;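 further: spheroids exposed to compounds for seven days; 100% = DMSO vehicle control viability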
Assay: Anticancer human tumor 186277-243-T-J2-PDC patient-derived colon adenocarcinoma cell line growth inhibition [POLQ]
Conditions: second compound 0.316 µM; first compound 3.16 µM; hits give low values
Assign viability, T/C to each entry below.
Kindly provide the numeric value in % only, without the unit symbol.

Q: Supply recorded viability, T/C for O=c1[nH]cc(F)c(=O)[nH]1 + Cc1cccc(N(C)C(=O)C2C(O)CCN2c2nc(C)cc(C(F)(F)F)c2C#N)c1 here.
Ans: 76.5

Q: Supply recorded viability, T/C for COc1cc(C2c3cc4c(cc3C(OC3OC5COC(C)OC5C(O)C3O)C3COC(=O)C23)OCO4)cc(OC)c1O (stereo not given) + Cc1cccc(N(C)C(=O)C2C(O)CCN2c2nc(C)cc(C(F)(F)F)c2C#N)c1 here.
Ans: 31.7

Q: Supply recorded viability, T/C for CNCc1ccc(-c2[nH]c3cc(F)cc4c3c2CCNC4=O)cc1 + COC1C(OC(N)=O)C(O)C(Oc2ccc3c(O)c(NC(=O)c4ccc(O)c(CC=C(C)C)c4)c(=O)oc3c2C)OC1(C)C here.
Ans: 115

Q: Supply recorded viability, T/C for CC1COCCN1c1cc(C2(O)CC3CCC(C2)O3)c2cnn(-c3ccn[nH]3)c2n1 (stereo not given) + Cc1cccc(N(C)C(=O)C2C(O)CCN2c2nc(C)cc(C(F)(F)F)c2C#N)c1 here.
Ans: 4.54

Q: Supply recorded viability, T/C for CCCS(=O)(=O)Nc1ccc(F)c(C(=O)c2c[nH]c3ncc(-c4ccc(Cl)cc4)cc23)c1F + COC1C(OC(N)=O)C(O)C(Oc2ccc3c(O)c(NC(=O)c4ccc(O)c(CC=C(C)C)c4)c(=O)oc3c2C)OC1(C)C here.
Ans: 101
